Assay: recombinant UMI read abundance after kanamycin selection (control-corrected) (log10(CPM+1)); higher = more efficient recombination; extreme values may be limits of the assay; sequences stand for … in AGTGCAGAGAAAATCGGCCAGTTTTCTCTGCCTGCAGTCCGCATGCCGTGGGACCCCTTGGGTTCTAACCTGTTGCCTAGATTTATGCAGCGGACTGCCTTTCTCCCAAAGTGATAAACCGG…AGGTTGGTTTCACT; site = the 11-nt donor
Our labelling divides records by recombinant UMI read abundance (log10) into ranges: lower segment = under 0.01, middle segment = from 0.01 up to 0.3, upper segment = 0.3 and over

[[record]]
sequence_code = "GGAGTCGCATGGACCGGTTTTCCCGGTAATCCGTATTTGGT (site GGAGTAGCTAC)"
discrete_label = "middle segment"

[[record]]
sequence_code = "CTTTAGACATGGACCGGTTTTCCCGGTAATCCGTATTTGAG (site CGTTAGACTCT)"
discrete_label = "middle segment"

[[record]]
sequence_code = "GGGCACCCATGGACCGGTTTTCCCGGTAATCCGTATTTGTT (site GGACACCCTAA)"
discrete_label = "middle segment"

[[record]]
sequence_code = "ACCTTCTCATGGACCGGTTTTCCCGGTAATCCGTATTTGGG (site CCCTTCTCTCC)"
discrete_label = "lower segment"

[[record]]
sequence_code = "GGAAACTCATGGACCGGTTTTCCCGGTAATCCGTATTTGTC (site GGAAACTCTGA)"
discrete_label = "upper segment"

[[record]]
sequence_code = "ATCAGGCCATGGACCGGTTTTCCCGGTAATCCGTATTTGAC (site ATTAGGCCTGT)"
discrete_label = "lower segment"

[[record]]
sequence_code = "TCCTGGCCATGGACCGGTTTTCCCGGTAATCCGTATTTGTA (site TCCTGGCCTTA)"
discrete_label = "middle segment"

[[record]]
sequence_code = "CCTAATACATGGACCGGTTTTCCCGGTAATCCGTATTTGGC (site CCTACTACTGC)"
discrete_label = "middle segment"

[[record]]
sequence_code = "AGTCTGACATGGACCGGTTTTCCCGGTAATCCGTATTTGCT (site AGTCTGACTAG)"
discrete_label = "upper segment"


---

Experiment: recombinant barcode read abundance after kanamycin selection (control-corrected) (log10(CPM+1)); higher = more efficient recombination; sequences stand for … in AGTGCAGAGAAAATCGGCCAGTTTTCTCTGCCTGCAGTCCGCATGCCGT…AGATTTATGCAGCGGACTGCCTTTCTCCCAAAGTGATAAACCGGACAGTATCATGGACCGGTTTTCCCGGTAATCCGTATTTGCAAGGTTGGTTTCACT; site = the 11-nt target
Recorded recombinant barcode read abundance (log10) values for a group of sequences are listed next.
readout.kind: recombinant barcode read abundance (log10)

[[record]]
sequence_code = "TGTCAACCTTGGGTTCTAACCTGTTGCCT (site TGTCAATCTAG)"
reading = 0

[[record]]
sequence_code = "CTGAGAGCTTGGGTTCTAACCTGTTGCCT (site CTGAGAGCTAG)"
reading = 1.61

[[record]]
sequence_code = "TAGAACACTTGGGTTCTAACCTGTTGCTT (site TAGAACACTGA)"
reading = 0.153

[[record]]
sequence_code = "TAAACAGCTTGGGTTCTAACCTGTTGCCT (site TAAACAGCTAG)"
reading = 0.0976

[[record]]
sequence_code = "CATCCGTCTTGGGTTCTAACCTGTTGCCT (site CATCCGACTAG)"
reading = 0.105

